Attribution: patent US20260216354A1

- target under test: T1, MKN45-HGF (Homo sapiens, UniProt P08581)
- T1 construct: MKN45 cells expressing c-MET antigens; endogenous in cells; host or cells: MKN45
- T1 sequence (P08581 25-1390): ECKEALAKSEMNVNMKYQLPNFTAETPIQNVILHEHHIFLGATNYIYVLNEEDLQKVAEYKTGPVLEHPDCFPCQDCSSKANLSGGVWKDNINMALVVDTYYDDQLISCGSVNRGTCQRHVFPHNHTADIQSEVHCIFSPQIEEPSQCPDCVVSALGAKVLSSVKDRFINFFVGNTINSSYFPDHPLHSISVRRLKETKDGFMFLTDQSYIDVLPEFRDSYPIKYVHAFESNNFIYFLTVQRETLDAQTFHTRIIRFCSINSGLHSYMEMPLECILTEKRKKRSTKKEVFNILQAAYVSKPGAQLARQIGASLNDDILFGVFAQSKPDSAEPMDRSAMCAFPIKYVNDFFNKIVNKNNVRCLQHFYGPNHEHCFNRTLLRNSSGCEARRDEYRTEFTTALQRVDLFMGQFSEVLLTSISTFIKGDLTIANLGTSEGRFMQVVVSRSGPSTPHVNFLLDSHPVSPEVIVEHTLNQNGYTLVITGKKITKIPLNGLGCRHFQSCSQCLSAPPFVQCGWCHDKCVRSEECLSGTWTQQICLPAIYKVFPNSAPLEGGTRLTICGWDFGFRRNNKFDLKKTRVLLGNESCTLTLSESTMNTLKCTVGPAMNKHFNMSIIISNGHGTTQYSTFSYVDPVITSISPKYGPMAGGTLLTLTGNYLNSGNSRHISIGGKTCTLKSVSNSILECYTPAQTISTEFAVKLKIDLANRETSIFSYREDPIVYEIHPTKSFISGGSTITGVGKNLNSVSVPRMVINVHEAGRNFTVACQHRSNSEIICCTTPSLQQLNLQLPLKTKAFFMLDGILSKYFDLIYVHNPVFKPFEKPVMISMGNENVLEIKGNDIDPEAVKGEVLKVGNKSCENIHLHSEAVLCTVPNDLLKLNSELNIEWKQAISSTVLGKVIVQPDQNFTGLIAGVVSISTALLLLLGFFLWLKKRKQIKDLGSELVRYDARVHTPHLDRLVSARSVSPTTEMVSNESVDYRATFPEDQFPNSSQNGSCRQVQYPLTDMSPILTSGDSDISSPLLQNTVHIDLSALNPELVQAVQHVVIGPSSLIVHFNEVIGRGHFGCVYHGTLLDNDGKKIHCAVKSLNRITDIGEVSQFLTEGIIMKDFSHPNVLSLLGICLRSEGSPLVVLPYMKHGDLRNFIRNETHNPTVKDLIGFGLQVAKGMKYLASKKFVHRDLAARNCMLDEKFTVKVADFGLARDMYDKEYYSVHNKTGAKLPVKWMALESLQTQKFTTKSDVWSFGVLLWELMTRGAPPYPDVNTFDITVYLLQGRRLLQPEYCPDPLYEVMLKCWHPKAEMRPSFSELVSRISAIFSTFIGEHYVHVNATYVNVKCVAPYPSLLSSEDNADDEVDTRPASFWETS
- test details: FACS blocking of MKN45-HGF ligand competition (murine-derived antibodies)
- Assay type: binding
Kindly supply the reported MKN45-HGF competition (IC50 = ng/ml) values for the records listed here.

molecule="44H10E8: murine-derived anti-cMET monoclonal antibody; VL SEQ ID NO: 5, VH SEQ ID NO: 6 (antibody, V domains shown) VH: QVHLQQSGAELARPGASVKMSCKASGYTFISYTIHWVKQSPGQGLEWIGYINPSSGYAKNNPKFQDKATLTADTSSTTAYIQLSSLTSEDSAVYYCTRPYGDFVDWYFDVWGTGTTVTVSS VL: NIMMTQSPSSLAVSAGEKVTMNCKSSQSVLYFSNQKNCLAWYQQKPGQSPKLLIYWASTRESGVPDRFTGSGSGTDFTLTISSVQADDLAVYYCQQYLSSLTFGAGTKLELK" reported_result="88.57 ng/mL"

Here's the next entry for you.
Lookup: Query: MKN45-HGF competition (IC50 = ng/ml); subject: 45A5G10: murine-derived anti-cMET monoclonal antibody; VL SEQ ID NO: 1, VH SEQ ID NO: 2 (antibody, V domains shown) VH: EVRLEESGGGFVQPGGSMKISCVASGFTFSNYWMNWVRQSPEKGLEWVAQIRLKSLNYATHYAESVKGRFTISRDDSRNSVYLQMNNLRAEDAGIYYCTEEGFAYWGRGTLVTVSA VL: IVMTQSPASLPVSLGQRATISCRASESVDDYGVSFVNWFQQKPGQPPKLLIYTASVQESGVPARFSGSGSGTDFSLNIHPLEEDDTAMYFCQQSKEIPPTFGGGTKLEIK
Found: 53.28 ng/mL
